Assay: IANBD-channel fluorescence artefacts in buffer – biochemical, artefact control for cardiac RTF calcium sensitizer project, confirmation (AID 504382)
Details: IANBD fluorescence interference counterscreen, EC20 Ca2+, at 7.2 µM, scaled: EC20 calcium 0, EC100 calcium 100
In all, about 2,500 compounds went through this assay and about 460 (18%) were called active.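 How the source made its calls: active means mean activation above a cutoff of low control average plus 3 SD from the earlier screen (cut at about 12% in these data); inactive means the rest.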 The list is a sample of the results.
Answer with one of the outcomes 1 (yes) for active, 0 (no) for inactive

N#CC1=C(N)OC2=C(CC/C2=C\c2ccccc2Cl)C1c1ccccc1Cl (stereo unspecified): 1 (yes)
COc1ccc(-n2nc3c(N4CCC(C(=O)N5CCC(C)CC5)CC4)nnc(C)c3c2C)cc1: 0 (no)
COc1cc(OC)cc(C(=O)NCC(=O)OC2CCOC2=O)c1 (stereo unspecified): 0 (no)

Attention now turns to another entry.
query: Assay result, entry Cc1c(C=O)c2ccccn2c1C(=O)c1cccs1 — outcome?
result: 0 (no)

----------
Assay: IANBD-channel fluorescence artefacts in buffer – biochemical, artefact control for cardiac RTF calcium sensitizer project, confirmation (AID 504382)
Conditions: IANBD fluorescence interference counterscreen, EC20 Ca2+, at 7.2 µM, hits give high values, scaled: EC20 calcium 0, EC100 calcium 100
About 460 (18%) of roughly 2,500 compounds were called active. Only a sample is shown.
readout name: fluorescence artifact activation (%)
Numbers only, in %.

CN(C)c1ccc(C=C2SC(=S)NC2=O)cc1: 0.13
Cc1ccc(Cn2c(Sc3nnc(C)s3)nc3c2c(=O)[nH]c(=O)n3C)cc1: 42.6
COc1ccc(CCNC(=O)CN(C)S(=O)(=O)c2ccc3c(c2)CCC(=O)N3)cc1OC: -0.01
CCn1cc([N+](=O)[O-])c(C(=O)Nc2ccn(Cc3ccccc3)n2)n1: 1.63
CCn1c(C(C)NC(C)=O)nc2ccccc21 (stereo unspecified): 2.7

Provide the reported fluorescence artifact activation of each entry below, same order.
1. O=c1oc2c3c4c(cc2c(C(F)(F)F)c1CCN1CCOCC1)CCCN4CCC3
2. COc1ccc(NC(=O)NS(=O)(=O)c2ccc(C)cc2)cn1

result:
-0.03
0.39

Provide the reported fluorescence artifact activation of each entry below, same order.
1. CCOC(=O)c1ccc(-c2c(-c3ccc4c(c3)OCO4)noc2C)cc1F
2. Cc1ccc(C)c(N2CCN(C(=O)c3cc4ccccn4n3)CC2)c1
3. COc1ccc(-c2nn(CCC(=O)O)cc2/C=C2\SC(N)=NC2=O)cc1
4. O=C(COC(=O)C1(c2ccccc2F)CCCC1)Nc1ncc(C(F)(F)F)cc1Cl
5. CC1(C)CC(=O)C(CC2CCCCC2=O)C(=O)C1 (stereo unspecified)
6. CCN(CC)c1ccc(/C=C2\C(=N)N3N=C(CC(=O)N4CCOCC4)SC3=NC2=O)cc1
7. COc1ccc(N=Cc2sc(O)c3ccccc23)cc1

result:
1. 0.96
2. 4.58
3. 0
4. -0.01
5. 0.76
6. 0.25
7. 27.5

Provide the reported fluorescence artifact activation of each entry below, same order.
1. Cn1c(-c2ccc(C=O)s2)nc2c3ccccc3c3ccccc3c21
2. CCN(CC)c1ccc(/C=C2\SC(N)=NC2=O)cc1
3. O=C(Nc1ccc(S(=O)(=O)Nc2ncccn2)cc1)c1nn(Cc2ccccc2)c(=O)c2ccccc12
4. Cn1nccc1NC(=O)Nc1cccc(Cl)c1Cl
5. CC(COC(=O)c1ccccc1)(COC(=O)c1ccccc1)/[N+]([O-])=C/c1ccccc1
6. N#C/C(=C/c1ccc(N2CCCCCC2)o1)c1cccc(F)c1

result:
1. 5.75
2. 18.7
3. 303
4. 13.5
5. 9.45
6. 33.8

Provide the reported fluorescence artifact activation of each entry below, same order.
1. CC1CC1c1ccc(/C=C(\C#N)C(=O)Nc2cccc(Cl)c2Cl)o1 (stereo unspecified)
2. COc1ccc(CN=C2NC(=O)CC(C(=O)Nc3ccc(F)cc3)S2)cc1 (stereo unspecified)
3. CN(C)c1ccc(/C=C/C(=O)c2ccc3c(c2)OCO3)cc1
4. Cc1ccc(-n2nnnc2C(=Cc2ccc(N(C)C)cc2)c2nnnn2-c2ccc(C)cc2)cc1
5. O=C(c1ccccn1)N(Cc1cccs1)C1(C(=O)NC2CCCCC2)CCCCC1
6. Cc1ccc(N=Cc2sc(O)c3ccccc23)cc1
7. O=C(NCc1ccco1)/C(=C\c1ccco1)NC(=O)c1ccc(Br)o1
8. Oc1sc(C=Nc2ccccc2)c2ccccc12

result:
4
1.74
2.49
0.09
0.12
0
24.4
-0.05

Provide the reported fluorescence artifact activation of each entry below, same order.
1. Oc1ccc(-c2c(C3=CCCCC3)sc3ccccc23)cc1
2. CC(C)CC1C(C#N)=C(N)SC(N)=C1C#N
3. CCCN1CC=C2C(C#N)=C(N)C(C#N)(C#N)C(c3cccc(OC)c3OC)C2C1 (stereo unspecified)

result:
28.2
0.12
0.1

Provide the reported fluorescence artifact activation of each entry below, same order.
1. Nc1nnnn1/N=C/c1cc(Cl)cc(Cl)c1O
2. COc1ccc(N/C=C2\C(=O)CCc3c2oc2cc(Cl)c(O)c(Cl)c32)cc1
3. O=S(=O)(O)c1nc2ccccc2n1Cc1ccccc1
4. Cc1ccc(CN2CCN(Cc3ccc(-n4cccn4)cc3C)CC2CCO)cc1 (stereo unspecified)
5. O=C(NCc1ccc(OC(F)(F)F)cc1)c1cccc2c1C(=O)c1ccc(N3CCCCC3)cc1S2(=O)=O

result:
[0.11, 12.7, 16.5, 37.2, 0.89]

----------
I'd appreciate it if you could supply fluorescence artifact activation values for the items below.
Assay: IANBD-channel fluorescence artefacts in buffer – biochemical, artefact control for cardiac RTF calcium sensitizer project, confirmation (AID 504382)
Settings: IANBD fluorescence interference counterscreen, EC20 Ca2+, at 7.2 µM, hits give high values, scaled: EC20 calcium 0, EC100 calcium 100
Screen size: about 2,500 compounds; about 460 (18%) were called active. Not all results are given here.
Numbers only, in %.

Worked examples follow.
Cc1ccc(S(=O)(=O)c2cccc(S(=O)(=O)N3CCOCC3)c2)cc1S(=O)(=O)N1CCOCC1: 6.87
O=C(COc1ccccc1)NC(=S)Nc1cccc(NC(=O)c2ccccc2Cl)c1: 0.01
CC(C)CNC(=S)NC(=O)c1ccccc1Cl: 32.2
CC(C)(C)OC(=O)N1CCC(Cc2cc(-c3cccnc3)no2)(C(=O)O)CC1: 3.74
COC(=O)CSc1nc2c(c(=O)n(C)c(=O)n2C)n1CCCc1ccccc1: 52.3

Provide the reported fluorescence artifact activation of each entry below, same order.
1. O=C(CSc1nnc(COc2ccccc2)o1)N1CCN(c2ccccc2)CC1
2. Cc1ccc(C(=O)N/C(=C/c2ccc(-c3ccc([N+](=O)[O-])cc3)o2)C(=O)NCCCN(C)C)cc1
3. CSc1nc2c(c(=O)[nH]c(=O)n2C)n1CCCc1ccccc1
4. CCn1c(CSCc2ccccc2)n[nH]c1=S

result:
1: 12; 2: 0.29; 3: 0.1; 4: 0.18

----------
Test: IANBD-channel fluorescence artefacts in buffer – biochemical, artefact control for cardiac RTF calcium sensitizer project, confirmation (AID 504382)
Conditions: IANBD fluorescence interference counterscreen, EC20 Ca2+, at 7.2 µM, hits give high values, scaled: EC20 calcium 0, EC100 calcium 100
Out of some 2,500 compounds screened, about 460 (18%) were called active. Not all results are given here.
I'd appreciate it if you could supply fluorescence artifact activation values for the items below.
Answers are plain numbers, in %.

Provide the reported fluorescence artifact activation of each entry below, same order.
1. Cc1ccc(S(=O)(=O)c2cc(C#N)c(=O)[nH]c2N)cc1
2. N#CC1CC(c2ccc([N+](=O)[O-])cc2)=NN1c1ccc([N+](=O)[O-])cc1 (configuration not stated)
3. Cc1cc(/C=C2\SC(=S)N(Cc3ccco3)C2=O)c(C)n1-c1cccnc1
4. COc1ccc(C2CC(c3ccncc3)=NN2c2ccc(S(N)(=O)=O)cc2)cc1 (configuration not stated)

result:
[6.68, 0.52, 10.8, 1.86]

Provide the reported fluorescence artifact activation of each entry below, same order.
1. O=[N+]([O-])c1ccc(C2=NN(c3ccccc3)C(c3ccco3)C2)cc1 (configuration not stated)
2. O=C(O)c1cc(Cl)ccc1-c1ccc(/C=C/c2cc(C(F)(F)F)[nH]c(=O)n2)o1
3. O=C(C1=C[C@@H](c2ccc(Br)cc2)C[C@@H](OCc2ccc(CO)cc2)O1)N1CCN(Cc2ccc3c(c2)OCO3)CC1

result:
-0.01
21.8
0.02

----------
Experiment: IANBD-channel fluorescence artefacts in buffer – biochemical, artefact control for cardiac RTF calcium sensitizer project, confirmation (AID 504382)
Settings: IANBD fluorescence interference counterscreen, EC20 Ca2+, at 7.2 µM, hits give high values, scaled: EC20 calcium 0, EC100 calcium 100
The campaign covered roughly 2,500 compounds. About 460 (18%) were called active. The list is a sample of the results.
readout name: fluorescence artifact activation (%)
Numbers only, in %.

Worked examples follow.
CSC(=NCc1ccco1)NC#N: 0.12
N#C/C(=C/c1ccc(N2CCCCC2)o1)C(=O)Nc1ccc2ccccc2c1: 52.8
CC1CC(C)(C)NC(=S)N1CCCC(=O)Nc1ccccc1F (stereo not given): 0.07

Provide the reported fluorescence artifact activation of each entry below, same order.
1. O=C(NC1CCCCC1)c1cccc2c1C(=O)c1ccc(N3CCCC3)cc1S2(=O)=O
2. O=C1c2cccc3c(N4CCCCC4)ccc(c23)C(=O)N1c1ccccc1O
3. Cc1ccc2c(c1)CCCN2CC(=O)N(C)c1c(N)n(Cc2ccccc2)c(=O)[nH]c1=O
4. Cc1cc(O)c(CN(C)C)c2c1C(=O)/C(=C/c1ccco1)O2
5. O=C(c1ccccc1)N1CCCCC1
6. CN(C)c1ccc(/C=C/C(=O)c2ccc(O)cc2)cc1

result:
1: 23.8; 2: -0.03; 3: -0.05; 4: 0; 5: 2.65; 6: -0.03

Provide the reported fluorescence artifact activation of each entry below, same order.
1. Cc1[nH]c(C)c(S(=O)(=O)N2c3ccccc3CC2C)c1C(=O)N1CCCCC1 (stereo not given)
2. COCCN(C(=O)CN1CCCc2ccccc21)c1c(N)n(Cc2ccccc2)c(=O)[nH]c1=O
3. CC(C)=CCC/C(C)=C/Cc1c(O)ccc(C(=O)/C=C/c2ccc(O)cc2)c1O
4. NC(=O)NNC1=Nc2cccc3cccc1c23
5. COc1ccccc1N1CCN(c2ccc([N+](=O)[O-])cc2Cl)CC1
6. CCn1c(=O)c(C(=O)CN2CCCc3ccccc32)c(N)n(Cc2ccccc2)c1=O
7. CCN(CC(=O)Nc1c(F)cccc1F)C(=O)CNC(=O)COc1ccccc1

result:
43.6
3.59
177
1.01
18.9
15.2
-0.06
